# Tested on: α-glucosidase (Yeast)
# protocol-notes: Fluorescence quenching (Stern–Volmer) and thermodynamic parameters
# Assay type: binding
# test-conditions: 310 K
# Experimental: An equal volume of polyphenol solution (0.02 mg/mL) was added to 3 mL of α-glucosidase solution (0.05 mg/mL) in 9 separate additions of 10 μL each. The mixture was shaken and then placed in a warm bath at 37 °C for 15 min. The system was scanned for fluorescence at three temperatures (298 K, 303 K, 310 K) using an F-7000 fluorescence spectrometer (Hitachi, Tokyo, Japan) at an excitation wavelength of 280 nm and excitation and emission slits of 5 nm. […]
measured-parameter: Kq (M⁻¹ s⁻¹)
Report the figure in M⁻¹ s⁻¹ without appending any unit label.

In the examples that follow, each entry is paired with its recorded Kq.
# compound, Kq [M⁻¹ s⁻¹]
records = [
    ("O=c1c(O[C@@H]2O[C@H](CO)[C@H](O)[C@H](O)[C@H]2O)c(-c2ccc(O)c(O)c2)oc2cc(O)cc(O)c12 [Hyperoside, hyperoside]", "1.117e+13"),
    ("C[C@@H]1O[C@@H](OC[C@H]2O[C@@H](Oc3c(-c4ccc(O)c(O)c4)oc4cc(O)cc(O)c4c3=O)[C@H](O)[C@@H](O)[C@@H]2O)[C@H](O)[C@H](O)[C@H]1O", "9.34e+12"),
    ("O=c1c(O)c(-c2ccc(O)cc2)oc2cc(O)cc(O)c12", "4.246e+13"),
    ("O=c1c(O)c(-c2ccc(O)c(O)c2)oc2cc(O)cc(O)c12", "5.55e+12"),
]

The reported α-glucosidase (Yeast) Kq of "C[C@@H]1O[C@@H](Oc2c(-c3ccc(O)c(O)c3)oc3cc(O)cc(O)c3c2=O)[C@H](O)[C@H](O)[C@H]1O" is 5.45e+12

====

# System: α-glucosidase (Yeast)
# protocol-notes: Omission experiment (model, single polyphenol and recombinant solutions)
# Type: biochemical
# test-conditions: single polyphenol solution at its content in FSI extract (RU 3.40, QU 0.38, HY 0.34, QI 0.23, KA 0.23 mg/mL)
# Experimental: The α-glucosidase inhibitory activity of the FSI samples was measured using the method described by Xiao et al., with minor modifications. Each sample solution (0.2 mL) was mixed with 1 mL of α-glucosidase (0.2 U/mL) of pH = 6.8 phosphate buffer solution. […] The absorbance was measured at 405 nm. The α-glucosidase inhibitory activity was calculated using the following Equation (1):(1) α-Glucosidase inhibitory activity(%)=(ΔAcontrol−ΔAsample/ΔAcontrol)×100 […]
Returns: string. Value is Fulfilled if measured α-Glucosidase Inhibition Rate of Omitted Compounds is below 80%, and Not fulfilled if it is greater than or equal to it.

# compound, label
records = [
    ("O=c1c(O)c(-c2ccc(O)c(O)c2)oc2cc(O)cc(O)c12 [Quercetin, quercetin]", "Not fulfilled"),
    ("O=c1c(O[C@@H]2O[C@H](CO)[C@H](O)[C@H](O)[C@H]2O)c(-c2ccc(O)c(O)c2)oc2cc(O)cc(O)c12 [Hyperoside, hyperoside]", "Fulfilled"),
    ("C[C@@H]1O[C@@H](OC[C@H]2O[C@@H](Oc3c(-c4ccc(O)c(O)c4)oc4cc(O)cc(O)c4c3=O)[C@H](O)[C@@H](O)[C@@H]2O)[C@H](O)[C@H](O)[C@H]1O [Rutin]", "Fulfilled"),
]

Q: Dear colleague, could you confirm whether α-Glucosidase Inhibition Rate of Omitted Compounds of C[C@@H]1O[C@@H](Oc2c(-c3ccc(O)c(O)c3)oc3cc(O)cc(O)c3c2=O)[C@H](O)[C@H](O)[C@H]1O [Quercitrin, quercitrin] falls below 80%? Thanks.
Result: Fulfilled
